Origin of values: patent US20240390383A1

# study_system: GCase (GBA) in human fibroblast cell line GM10915 harboring the L444P GBA mutation (Homo sapiens, UniProt P04062, L483P)
# Construct: Human fibroblast cell line GM10915 harboring the L444P GBA mutation; host or cells: GM10915 human fibroblasts
# Sequence (P04062 40-536 L483P): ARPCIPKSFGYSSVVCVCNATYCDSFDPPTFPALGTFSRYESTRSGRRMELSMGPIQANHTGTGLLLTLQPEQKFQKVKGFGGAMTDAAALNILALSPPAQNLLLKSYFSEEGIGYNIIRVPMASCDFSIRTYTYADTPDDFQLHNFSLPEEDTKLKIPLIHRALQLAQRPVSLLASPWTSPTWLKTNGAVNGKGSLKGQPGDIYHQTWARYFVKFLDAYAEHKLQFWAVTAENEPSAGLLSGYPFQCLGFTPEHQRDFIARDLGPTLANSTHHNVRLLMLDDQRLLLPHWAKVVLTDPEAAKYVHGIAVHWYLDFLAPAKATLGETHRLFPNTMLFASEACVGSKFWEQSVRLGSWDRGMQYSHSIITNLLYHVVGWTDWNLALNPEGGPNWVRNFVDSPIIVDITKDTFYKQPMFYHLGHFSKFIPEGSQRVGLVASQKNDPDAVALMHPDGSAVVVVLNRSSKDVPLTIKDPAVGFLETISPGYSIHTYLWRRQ
# assay_details: GCase activity assay (4-MUG substrate, normalised to crystal violet staining) in L444P GBA fibroblasts
# Assay type: cell-based
# test_conditions: concentration giving 150% GCase activity (1.5-fold induction), 5 days exposure, 8-point dose range
# Description: Human fibroblast cell line GM10915 harboring the L444P GBA mutation was obtained from Coriell Biorepositories. […] The GM10915 cell line was cultured under standard cell culture conditions (37° C. and 5% CO2) in complete DMEM medium supplemented with nonessential amino acids (NEAA), 1% Pen-Strep and 12% FCS. […] Crystal violet staining is performed to obtain quantitative information about the relative density of cells adhering to multi-wells plates. […]
readout_name: GBA EC1.5 (µM)
Answer format: numeric, µM implied, no suffix.

input: Could you share which GBA EC1.5 value was measured for CC(=O)NC1CCNCC1C1=NOCC(CN2CCCCC2)O1 (stereo not drawn) ?
output: 50

input: Record: OCC1(C2=NOCC(CN3CCCCC3)O2)CCNCC1 (racemic)
output: 26

input: Please give the result for CC1(C2=NOCC(CN3CCCCC3)O2)CCNCC1 (single isomer, unassigned) [compound 567] too.
output: 7

input: Same question, CC1(C2=NOCC(CN3CCNC(C(F)(F)F)CC3)O2)CCNCC1 (racemic) this time
output: 14

input: Now the compound CC1ON=C(C2(C)CCNCC2)OC1CN1CCCCC1 (racemic)
output: 7

input: Follow-up entry: CN1C(=O)CC(C2=NOCC(CN3CCCCC3)O2)c2ccccc21 (stereo not drawn)
output: 50

input: Same lookup for COc1ncc(CC2(C3=NOC(C)C(CN4CCCCC4)O3)CCNC2)cc1Cl (stereo not drawn) , please.
output: 50

input: Repeat with C1CCN(CC2CON=C(C3(C4CCOCC4)CCNC3)O2)CC1 (racemic)
output: 14

input: And what about the compound CN1CCC(C2=NOCC(CN3CCCCC3)O2)CC1=O (stereo not drawn) ?
output: 50
